target under test: bovine intestinal alkaline phosphatase (Bos taurus (Bovine))
Sequence (P19111 20-506): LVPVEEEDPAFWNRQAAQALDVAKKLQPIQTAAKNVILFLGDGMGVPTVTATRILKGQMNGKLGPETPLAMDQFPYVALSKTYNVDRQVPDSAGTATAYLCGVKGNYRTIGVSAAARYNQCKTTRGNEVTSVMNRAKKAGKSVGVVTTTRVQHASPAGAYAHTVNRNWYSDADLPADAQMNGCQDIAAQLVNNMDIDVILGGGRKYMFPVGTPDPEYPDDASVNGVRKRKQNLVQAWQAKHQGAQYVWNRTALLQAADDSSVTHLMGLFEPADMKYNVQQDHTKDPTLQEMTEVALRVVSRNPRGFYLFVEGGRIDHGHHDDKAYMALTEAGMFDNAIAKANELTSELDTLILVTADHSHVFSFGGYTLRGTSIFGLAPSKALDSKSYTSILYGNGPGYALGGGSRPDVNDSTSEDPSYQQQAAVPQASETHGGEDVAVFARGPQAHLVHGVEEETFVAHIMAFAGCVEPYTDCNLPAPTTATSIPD
method summary: BiALP: conversion by bovine intestinal alkaline phosphatase
Assay type: in vitro ADME
test context: 2 μM substrate, 100 ng/mL iALP, Tris pH 7.8, 37° C., 60 minutes
This listing pairs molecules with measured [Compound].
Reply numerically in nM, unit not repeated.

COC(=O)N[C@H](C(=O)N[C@@H](Cc1ccc(C#Cc2cnc(N3CC4CCC(C3)N4C3COC3)nc2)cc1)[C@H](CN(Cc1c(F)cc(-c2ccn(C(F)F)n2)cc1F)NC(=O)[C@@H](NC(=O)OC)C(C)(C)C(F)(F)F)OC(=O)CC(C)(C)c1c(CC(=O)NCP(=O)(O)O)cc(C)cc1OP(=O)(O)O)C(C)(C)C(F)(F)F
1622.8
COC(=O)N[C@H](C(=O)N[C@@H](Cc1ccc(C#Cc2cnc(N3CC4CCC(C3)N4C3COC3)nc2)cc1)[C@H](CN(Cc1c(F)cc(-c2ccn(C(F)F)n2)cc1F)NC(=O)[C@@H](NC(=O)OC)C(C)(C)C(F)(F)F)OC(=O)CC(C)(C)c1c(CC(=O)NCC(C)(C)C(=O)O)cc(C)cc1OP(=O)(O)O)C(C)(C)C(F)(F)F
1589
COC(=O)N[C@H](C(=O)N[C@@H](Cc1ccc(C#Cc2cnc(N3CC4CCC(C3)N4C3COC3)nc2)cc1)[C@H](CN(Cc1c(F)cc(-c2ccn(C(F)F)n2)cc1F)NC(=O)[C@@H](NC(=O)OC)C(C)(C)C(F)(F)F)OC(=O)CC(C)(C)c1c(CC(=O)N2CC[C@H](C(=O)O)C2)cc(C)cc1OP(=O)(O)O)C(C)(C)C(F)(F)F
1777
COC(=O)N[C@H](C(=O)N[C@@H](Cc1ccc(C#Cc2cnc(N3CC4CCC(C3)N4C3COC3)nc2)cc1)[C@H](CN(Cc1c(F)cc(-c2ccn(C(F)F)n2)cc1F)NC(=O)[C@@H](NC(=O)OC)C(C)(C)C(F)(F)F)OC(=O)OCOC(=O)CC(C)(C)c1c(CC(=O)N[C@@H](CCC(=O)O)C(=O)O)cc(C)cc1OP(=O)(O)O)C(C)(C)C(F)(F)F
1164.8

In: Tell me reported [Compound] for `COC(=O)N[C@H](C(=O)N[C@@H](Cc1ccc(C#Cc2cnc(N3CC4CCC(C3)N4C3COC3)nc2)cc1)[C@H](CN(Cc1c(F)cc(-c2ccn(C(F)F)n2)cc1F)NC(=O)[C@@H](NC(=O)OC)C(C)(C)C(F)(F)F)OC(=O)CC(C)(C)c1c(CC(=O)N[C@@H](CCC(N)=O)C(=O)O)cc(C)cc1OP(=O)(O)O)C(C)(C)C(F)(F)F` , tested with bovine intestinal alkaline phosphatase (Bos taurus (Bovine)).
Out: 1726.6

In: What do you get for COC(=O)N[C@H](C(=O)N[C@@H](Cc1ccc(C#Cc2cnc(N3CC4CCC(C3)N4C3COC3)nc2)cc1)[C@H](CN(Cc1c(F)cc(-c2ccn(C(F)F)n2)cc1F)NC(=O)[C@@H](NC(=O)OC)C(C)(C)C(F)(F)F)OC(=O)OC(C)OC(=O)CC(C)(C)c1c(CC(=O)O)cc(C)cc1OP(=O)(O)O)C(C)(C)C(F)(F)F (stereo in doubt) ?
Out: 1271

In: Now consider `COC(=O)N[C@H](C(=O)N[C@@H](Cc1ccc(C#Cc2cnc(N3CC4CCC(C3)N4C3COC3)nc2)cc1)[C@H](CN(Cc1c(F)cc(-c2ccn(C(F)F)n2)cc1F)NC(=O)[C@@H](NC(=O)OC)C(C)(C)C(F)(F)F)OC(=O)CC(C)(C)c1c(CC(=O)O)cccc1OP(=O)(O)O)C(C)(C)C(F)(F)F` and answer again.
Out: 1638.1

In: And COC(=O)N[C@H](C(=O)N[C@@H](Cc1ccc(C#Cc2cnc(N3CC4CCC(C3)N4C3COC3)nc2)cc1)[C@H](CN(Cc1c(F)cc(-c2ccn(C(F)F)n2)cc1F)NC(=O)[C@@H](NC(=O)OC)C(C)(C)C(F)(F)F)OC(=O)CC(C)(C)c1c(CC(=O)NC(CCP(=O)(O)O)C(=O)O)cc(C)cc1OP(=O)(O)O)C(C)(C)C(F)(F)F (stereo partly drawn) ?
Out: 2145.2

In: Same again, this time with `COC(=O)N[C@H](C(=O)N[C@@H](Cc1ccc(C#Cc2cnc(N3CC4CCC(C3)N4C3COC3)nc2)cc1)[C@H](CN(Cc1c(F)cc(-c2ccn(C(F)F)n2)cc1F)NC(=O)[C@@H](NC(=O)OC)C(C)(C)C(F)(F)F)OC(=O)CC(C)(C)c1c(CC(=O)N[C@@H](C)C(=O)O)cc(C)cc1OP(=O)(O)O)C(C)(C)C(F)(F)F`
Out: 1320.1

In: Same for `COC(=O)N[C@H](C(=O)N[C@@H](Cc1ccc(C#Cc2cnc(N3CC4CCC(C3)N4C3COC3)nc2)cc1)[C@H](CN(Cc1c(F)cc(-c2ccn(C(F)F)n2)cc1F)NC(=O)[C@@H](NC(=O)OC)C(C)(C)C(F)(F)F)OC(=O)O[C@H](C)OC(=O)CC(C)(C)c1c(CC(=O)O)cc(C)cc1OP(=O)(O)O)C(C)(C)C(F)(F)F`
Out: 1224.6

In: Repeat for the following molecule: CC(C)CN(C[C@@H](OP(=O)(O)O)[C@H](Cc1ccccc1)NC(=O)O[C@H]1CCOC1)S(=O)(=O)c1ccc(N)cc1 [Fosamprenavir, fosamprenavir, reference compound]
Out: 1605

In: Proceed to `COC(=O)N[C@H](C(=O)N[C@@H](Cc1ccc(C#Cc2cnc(N3CC4CCC(C3)N4C3COC3)nc2)cc1)[C@H](CN(Cc1c(F)cc(-c2ccn(C(F)F)n2)cc1F)NC(=O)[C@@H](NC(=O)OC)C(C)(C)C(F)(F)F)OC(=O)OCOC(=O)CC(C)(C)c1c(CC(=O)NCC(=O)NS(C)(=O)=O)cc(C)cc1OP(=O)(O)O)C(C)(C)C(F)(F)F`
Out: 1221.6
